- target: recombinant soluble homotrimeric HA of A/Anhui/1/05 (H5N1) (Influenza A virus A/Anhui/1/2005(H5N1))
- assay.overview: HA microarray, BCC supernatant
- details: remark: other sources report otherwise
value.type: Trimeric HA Binding: RLU

binder | endpoint.value
TCN-534 (5249_B02) (antibody, V domains shown) VH: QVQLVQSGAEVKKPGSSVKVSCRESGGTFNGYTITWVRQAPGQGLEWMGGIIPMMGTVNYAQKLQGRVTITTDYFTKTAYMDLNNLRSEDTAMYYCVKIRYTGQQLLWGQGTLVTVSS VL: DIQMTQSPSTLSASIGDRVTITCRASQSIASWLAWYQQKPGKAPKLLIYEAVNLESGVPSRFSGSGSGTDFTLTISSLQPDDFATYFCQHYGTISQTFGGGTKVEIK | 6860 RLU
